Target: mGluR2 receptor (metabotropic glutamate receptor 2) (Homo sapiens, UniProt Q14416)
Construct: expressed in transfected cells
Sequence (Q14416 19-872, species assumed): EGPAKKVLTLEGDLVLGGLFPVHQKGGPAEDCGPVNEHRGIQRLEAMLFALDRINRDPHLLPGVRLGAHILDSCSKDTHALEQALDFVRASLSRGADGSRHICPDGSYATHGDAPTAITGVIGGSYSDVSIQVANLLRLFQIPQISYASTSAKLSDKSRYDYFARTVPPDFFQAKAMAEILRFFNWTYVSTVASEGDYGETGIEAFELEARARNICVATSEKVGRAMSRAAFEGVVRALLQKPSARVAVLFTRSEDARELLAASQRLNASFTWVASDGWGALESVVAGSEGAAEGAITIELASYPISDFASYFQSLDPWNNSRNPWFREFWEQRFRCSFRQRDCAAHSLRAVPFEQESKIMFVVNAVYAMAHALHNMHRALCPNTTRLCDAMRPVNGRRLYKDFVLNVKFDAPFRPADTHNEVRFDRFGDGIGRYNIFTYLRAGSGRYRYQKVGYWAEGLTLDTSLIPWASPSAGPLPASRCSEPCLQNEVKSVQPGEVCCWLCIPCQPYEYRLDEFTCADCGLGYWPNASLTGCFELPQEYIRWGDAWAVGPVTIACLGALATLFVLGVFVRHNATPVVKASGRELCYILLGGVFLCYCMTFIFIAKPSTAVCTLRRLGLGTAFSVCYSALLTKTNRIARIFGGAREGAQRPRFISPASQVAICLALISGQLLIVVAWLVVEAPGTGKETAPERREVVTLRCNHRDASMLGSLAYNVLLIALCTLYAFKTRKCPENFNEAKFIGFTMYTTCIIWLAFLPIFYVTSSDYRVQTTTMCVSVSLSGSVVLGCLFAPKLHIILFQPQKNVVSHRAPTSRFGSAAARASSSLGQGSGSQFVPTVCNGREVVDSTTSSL
Test: mGluR2 Potentiator Screen, FLIPR, EC10-EC20 glutamate challenge
Assay type: cell-based
Details: mGluR2 potentiator screen, Table 7; read-out: EC50
Experimental: Procedure for mGluR2 Potentiator Screen NLB Methods EC10-EC20 Challenge Cell Culture and Plating: Cells used for this screen are HEK cells stably transfected with the mGluR2 receptor (metabotropic glutamate receptor 2) and the Gα15 G protein. […] Results are analyzed by dividing the peak fluorescent value of the FLIPR response by the […] to achieve a ratio response. The ratios are then analyzed by curve fitting programs. […]
Entry class follows EC50: low = under 400 nM, mid = from 400 nM up to 1000 nM, high = 1000 nM and over

Use the examples below as a reference point.
Clc1ccc(OCCC2CC2)c(C2CCN(Cc3nc4ccccc4n3C3CC3)CC2)c1 [compound 187] = mid
Cn1c(CN2CCC(c3cc(Cl)ccc3OCC3CCCO3)CC2)nc2ccccc21 (stereo not drawn) [compound 207] = mid
Cn1c(CN2CCC(c3cccc(C(F)(F)F)c3)CC2)nc2ccccc21 [compound 162] = low
COCCn1c(CN2CCC(c3cc(Cl)ccc3OCCC3CC3)CC2)nc2ccccc21 [compound 191] = low

// query Dear colleague, I would appreciate it if you could identify the bin for Cn1c(CN2CCC(c3ccccc3Cl)CC2)nc2c(Br)cccc21 [compound 160] and reply at your convenience.
// result mid

// query Dear colleague, I would appreciate it if you could identify the bin for FCCn1c(CN2CCC(c3cc(Cl)ccc3OCCC3CC3)CC2)nc2ccccc21 [compound 190] and reply at your convenience.
// result low

// query Dear colleague, I would appreciate it if you could identify the bin for CC[C@H](C)COc1ccc(Cl)cc1C1CCN(Cc2nc3ccccc3n2CCOC)CC1 [compound 176] and reply at your convenience.
// result high

// query Dear colleague, I would appreciate it if you could identify the bin for FCn1c(CN2CCC(c3cc(Cl)ccc3OCC3CCC3)CC2)nc2ccccc21 [compound 193] and reply at your convenience.
// result high

// query Dear colleague, I would appreciate it if you could identify the bin for FCCn1c(CN2CCC(c3cc(Cl)ccc3OCC3CCCO3)CC2)nc2ccccc21 (stereo not drawn) [compound 210] and reply at your convenience.
// result high

* * *

Could you please report measured EC50 for the items listed next?
Target: mGluR2 receptor (metabotropic glutamate receptor 2) (Homo sapiens)
Construct: expressed in transfected cells
Assay: mGluR2 Potentiator Screen, FLIPR, EC10-EC20 glutamate challenge
Assay type: cell-based
Conditions: read-out: EC50

COc1ccc(C(F)(F)F)cc1C1CCN(Cc2nc3cc(C#N)ccc3n2C)CC1 [compound 388] = 0.583 µM
COc1cccc(C2CCN(Cc3nc4cc(F)ccc4n3C)CC2)c1 [compound 378] = 0.568 µM
COc1cc(C(F)(F)F)ccc1C1CCN(Cc2nc3ccccc3n2CCF)CC1 [compound 357] = 0.105 µM
CCCCC(=O)N1CC2(CCN(Cc3nc4ccccc4n3C)CC2)c2ccccc21 [compound 62] = 0.261 µM
FCn1c(CN2CCC(c3ccc(C(F)(F)F)cc3)CC2)nc2ccccc21 [compound 255] = 0.164 µM
Cc1ccc2c(c1)nc(CN1CCC(c3ccccc3F)CC1)n2C [compound 273] = 0.0797 µM
COc1ccc(C(F)(F)F)cc1C1CCN(Cc2nc3c(F)cccc3n2C)CC1 [compound 397] = 0.435 µM
Cc1ccc2c(c1)C1(CCN(Cc3nc4ccccc4n3C)CC1)CN2C(=O)C(C)C [compound 24] = 1.62 µM

// moving on: another record for EC50
// query Record request: EC50 value, item Cn1c(CN2CCCC(c3ccc(C(F)(F)F)cc3)CC2)nc2ccccc21 (stereo not drawn) [compound 303]
// result 0.868 µM

* * *

Could you please report measured pEC50 for the items listed next?
Target: mGluR2 receptor (metabotropic glutamate receptor 2) (Homo sapiens, UniProt Q14416)
Construct: expressed in transfected cells
Experiment: mGluR2 Potentiator Screen, FLIPR, EC10-EC20 glutamate challenge
Type: cell-based
Conditions: read-out: EC50
One number for each entry, as −log10 of the molar value.

COc1ccccc1C1CCN(Cc2nc3ccccc3n2C2CC2)CC1 = 6.32
Cn1c(CN2CCC(c3ccccc3OC(F)(F)F)CC2)nc2ccccc21 = 7.11
Cn1c(CN2CCC(c3cc(C(F)(F)F)cc(C(F)(F)F)c3)CC2)nc2ccccc21 = 6.70
C[C@@H]1CN(Cc2nc3ccccc3n2C)CC[C@@H]1c1ccc(C(F)(F)F)cc1 (relative stereo) = 6.33
Cn1c(CN2CCC(c3ccccc3F)CC2)nc2cc(C#N)ccc21 = 7.14

Could you tell me pEC50 for each of these compounds? They are listed below.
1. CC(C)CCN1CC2(CCN(Cc3nc4ccccc4n3C)CC2)c2ccccc21
2. CCCCCOc1ccccc1C1CCN(Cc2nc3ccccc3n2C)CC1

// result
[5.51, 6.49]

* * *

Could you please report measured EC50 for the items listed next?
Target: mGluR2 receptor (metabotropic glutamate receptor 2) (Homo sapiens, UniProt Q14416)
Construct: expressed in transfected cells
Assay: mGluR2 Potentiator Screen, FLIPR, EC10-EC20 glutamate challenge
Type: cell-based
Conditions: EC50 (uM)
Numbers only, in µM.

CCC(=O)C1(c2ccccc2)CCN(Cc2nc3ccccc3n2C)CC1 [compound 73] = 3.97

// moving on: another record for EC50
// query Query EC50 on mGluR2 receptor (metabotropic glutamate receptor 2) (Homo sapiens, UniProt Q14416) for COc1cccc(C2(C#N)CCN(Cc3nc4ccccc4n3C)CC2)c1 [compound 72]
// result 10.6

* * *

Target: mGluR2 receptor (metabotropic glutamate receptor 2) (Homo sapiens, UniProt Q14416)
Construct: expressed in transfected cells
Experiment: mGluR2 Potentiator Screen, FLIPR, EC10-EC20 glutamate challenge
Type: cell-based
Conditions: read-out: EC50
pEC50: −log10 of the molar value.
Would you please tag the item MET when its pEC50 is 7 or above, and NOT MET when it is below?

Use the examples below as a reference point.
Cc1cc(C)cc(C2CCN(Cc3nc4ccccc4n3C)CC2)c1 [compound 302] = MET
COc1cc(C(F)(F)F)ccc1C1CCN(Cc2nc3cc(Cl)ccc3n2C)CC1 [compound 383] = NOT MET
Cn1c(CN2CCC(c3ccccc3OCCC3CC3)CC2)nc2ccccc21 [compound 92] = NOT MET
Cn1c(CN2CCC(c3ccc(F)cc3F)CC2)nc2ccccc21 [compound 422] = MET
Cn1c(CN2CCC(c3ccc(C(F)(F)F)cc3)CCC2=O)nc2ccccc21 (stereo not drawn) [compound 290] = NOT MET
Cn1c(CN2CCC(c3ccc(C(F)(F)F)cc3F)CC2)nc2cc(F)ccc21 [compound 353] = MET
Cn1c(CN2CCC(c3ccccc3F)CC2)nc2ccccc21 [compound 79] = MET
CN1CC2(CCN(Cc3nc4ccccc4n3C)CC2)c2ccccc21 [compound 135] = NOT MET

We now examine a further compound.
// query # check: pEC50 of Cc1ccc2c(c1)C1(CCN(Cc3nc4ccccc4n3C)CC1)CN2C(=O)C1CC1 [compound 36] is greater than or equal to 7
// result NOT MET

* * *

Molecular target: mGluR2 receptor (metabotropic glutamate receptor 2) (Homo sapiens, UniProt Q14416)
Construct: expressed in transfected cells
Experiment: mGluR2 Potentiator Screen, FLIPR, EC10-EC20 glutamate challenge
Format: cell-based
Details: read-out: EC50
attribute-measured: pEC50
Numbers only, as −log10 of the molar value.

Consider the worked cases shown below.
Cc1ccc2c(c1)C1(CCN(Cc3nc4ccccc4n3C)CC1)CN2C(=O)c1ccoc1 [compound 29] = 5.61
Cn1c(CN2CC[C@@H](c3ccc(F)cc3)[C@H](COc3ccc4c(c3)OCO4)C2)nc2ccccc21 [compound 410] = 5.28
Cn1c(CN2CCC(F)(c3ccc(C(F)(F)F)cc3)CC2)nc2ccccc21 [compound 433] = 6.91
Cn1c(CN2CCC(c3cc(Cl)ccc3F)CC2)nc2cc(F)ccc21 [compound 372] = 6.51
Cn1c(CN2CCC(c3cc(F)cc(F)c3)CC2)nc2ccccc21 [compound 414] = 6.90

Could you tell me pEC50 for each of these compounds? They are listed below.
1. Cc1cc(C)c2c(c1)C1(CCN(Cc3nc4ccccc4n3C)CC1)CN2CC1CCCO1 (centres unmarked) [compound 123]
2. COc1cc(C(F)(F)F)ccc1C1CCN(Cc2nc3ccccc3n2C)CC1 [compound 355]

// result
[5.30, 7.18]

* * *

Molecular target: mGluR2 receptor (metabotropic glutamate receptor 2) (Homo sapiens, UniProt Q14416)
Construct: expressed in transfected cells
Assay: mGluR2 Potentiator Screen, FLIPR, EC10-EC20 glutamate challenge
Assay type: cell-based
Conditions: read-out: EC50
Could you please report measured log10 EC50 for the items listed next?
Log scale reminder: EC50 in µM, then log10 taken.

Could you tell me log10 EC50 for each of these molecules? They are listed below.
1. Cc1cc(C)c2c(c1)C1(CCN(Cc3nc4ccccc4n3C)CC1)CN2CCC(C)C
2. Cn1c(CN2CCC(c3cc(Cl)ccc3F)CC2)nc2cc(Cl)ccc21
3. Cn1c(CN2CCC(c3cccc(F)c3F)CC2)nc2ccccc21
4. COc1ccc(Cl)cc1C1CCN(Cc2nc3ccccc3n2C)CC1
5. COCCn1c(CN2CCC(c3ccccc3OC)CC2)nc2ccccc21

// result
[0.06, 0.24, -1.69, -0.94, -0.49]

Could you tell me log10 EC50 for each of these molecules? They are listed below.
1. COCCn1c(CN2CCC(c3ccc(C(F)(F)F)cc3)CC2)nc2ccccc21
2. CCOC(=O)CCC(=O)N1CC2(CCN(Cc3nc4ccccc4n3C)CC2)c2cc(C)ccc21
3. C[C@@H]1CN(Cc2nc3ccccc3n2C)CC[C@@H]1c1ccc(F)c(F)c1 (single isomer, unassigned) [Entry 472]

// result
-0.38
0.13
-0.82
